Attribution: PubChem BioAssay (NCI)

# Tested on: SK-MEL-5 melanoma
# measurementNotes: NCI tumour cell line growth inhibition, 48 h
Give measured TGI for each item. Keep answers brief.

(Q) Look up TGI of CCOC(=O)C1=C(C)N2CCOC2(C)C(C(=O)OC)C1c1cccc(Cl)c1 (stereo unspecified) and report it.
(A) > 100 µM

(Q) Look up TGI of CC(CO)CCNc1ncnc2c1ncn2CCC(=O)O (stereo unspecified) and report it.
(A) > 100 µM

(Q) Look up TGI of NC(=O)CC(N)C(N)=O (stereo unspecified) and report it.
(A) > 100 µM

(Q) Look up TGI of COc1ccc(N(CN2C(=O)CCC2OC)C(C)=O)cc1 (stereo unspecified) and report it.
(A) > 100 µM

(Q) Look up TGI of `COc1ccc(CNc2nc3ccccc3nc2C(=O)O)cc1OC` and report it.
(A) > 100 µM

(Q) Look up TGI of S=C1Nc2cnc3ccccc3c2SC1c1ccccc1 (stereo unspecified) and report it.
(A) > 100 µM

(Q) Look up TGI of `O=C(OCc1ccccc1)c1nc2ccccc2n1S(=O)(=O)c1ccccc1` and report it.
(A) > 100 µM

(Q) Look up TGI of `Cn1cc(C2=C(n3ccc4ccccc43)C(=O)NC2=O)c2ccccc21` and report it.
(A) > 25 µM

(Q) Look up TGI of `Cc1c(C)n(COCCO)c2ncnc(N)c12` and report it.
(A) > 100 µM

(Q) Look up TGI of Oc1ccc2c(c1)OCC1(O)Cc3cc(O)c(O)cc3C21 (stereo unspecified) and report it.
(A) 34.2 µM

(Q) Look up TGI of Cc1ccc(S(=O)(=O)NC2CCCCO2)cc1 (stereo unspecified) and report it.
(A) > 100 µM

(Q) Look up TGI of CN1CCC(CN2c3ccccc3Sc3ccccc32)C1 (stereo unspecified) and report it.
(A) 27.7 µM

(Q) Look up TGI of CC1CC(c2ccccc2)Nc2nc3ccccc3n21 (stereo unspecified) and report it.
(A) > 100 µM

(Q) Look up TGI of CC(=O)Nc1ccc(C(=O)NN2C(=O)C(Cl)C2c2cc(Br)cc(Br)c2O)cc1 (stereo unspecified) and report it.
(A) > 100 µM

(Q) Look up TGI of CCCCCCCC/C=C/CCCCCCCC(=O)N(O)C1CC(n2cc(C)c(=O)[nH]c2=O)OC1CO (stereo unspecified) and report it.
(A) 19.5 µM

(Q) Look up TGI of `COc1ccc2c(c1OC)OC[C@@H](C1=CC(=O)C=C(O)C1=O)C2` and report it.
(A) 27 µM

(Q) Look up TGI of `CCNCCNc1cc(-c2ccc(Cl)c(Cl)c2)c(C#N)c2nc3ccccc3n12` and report it.
(A) 3.12 µM

(Q) Look up TGI of `CN(C)N=Nc1cn[nH]c1C(N)=O` and report it.
(A) > 100 µM

(Q) Look up TGI of COc1ccc2c(c1)C(=O)C1(C2)[C@H](c2ccccc2)C2C(=O)c3cc(OC)ccc3C2[C@H]1c1ccccc1 (stereo partly specified) and report it.
(A) > 100 µM

(Q) Look up TGI of `CCOC(=O)c1ccc(N=Cc2ccc(N(CCC#N)CCC#N)cc2)cc1` and report it.
(A) > 100 µM

(Q) Look up TGI of `O=C(Nc1cccc([N+](=O)[O-])c1)/C(=N\NC(=O)c1ccncc1)c1nc2ccc([N+](=O)[O-])cc2[nH]c1=O` and report it.
(A) > 100 µM

(Q) Look up TGI of CCCCCCC1=NOC(C(c2cc[nH]c2)N(C)[C@H](C(=O)OC)C(C)C)C1 (stereo partly specified) and report it.
(A) > 100 µM

(Q) Look up TGI of `COc1ccc(CCc2nc3cc(-c4c(C)noc4C)ccc3n2CCN2CCOCC2)cc1` and report it.
(A) 43.8 µM

(Q) Look up TGI of NC(=O)/C(=N\NC(=O)c1cc2ccccc2cc1O)C1C(=O)N(c2ccccc2)N=C1N (stereo unspecified) and report it.
(A) 37.2 µM

(Q) Look up TGI of `Cc1oc2c(cc(O)c3ccccc32)c2cccc1-2` and report it.
(A) > 100 µM

(Q) Look up TGI of `COc1ccc(-c2csc(=[N+]3CCCCC3)s2)cc1` and report it.
(A) 4.76 µM
